Provide the reported half-life of each item.
# Experiment description: Stability of peptides in human plasma
# Assay type: in vitro ADME
# Test settings: human, plasma
Where a SMILES comes first, the peptide text is derived from it. [ ]: non-standard residue; d: D form. ξ: configuration not given here. ξBip(2'-Et-4'-OMe) = CCc1cc(OC)ccc1-c1ccc(CC(N)C(=O)O)cc1; ξαMePhe(2,6-F2) = CC(N)(Cc1c(F)cccc1F)C(=O)O; ξαMePhe(2-F) = CC(N)(Cc1ccccc1F)C(=O)O; hhPhe = N[C@@H](CCCc1ccccc1)C(=O)O; hArg = N=C(N)NCCCC[C@H](N)C(=O)O; hCit = NC(=O)NCCCC[C@H](N)C(=O)O; Cit = NC(=O)NCCC[C@H](N)C(=O)O; ξαMeF = CC(N)(Cc1ccccc1)C(=O)O; Nle = CCCC[C@H](N)C(=O)O; Orn = NCCC[C@H](N)C(=O)O; ξαMeP = CC1(C(=O)O)CCCN1; Ac5c = NC1(C(=O)O)CCCC1; Aib = CC(C)(N)C(=O)O

The examples below pair each entry with its known result.
- CCCC[C@H](NC(=O)C(C)(Cc1ccccc1F)NC(=O)[C@H](CCC(N)=O)NC(=O)[C@@H](NC(=O)[C@H](CCC(=O)O)NC(=O)C(C)(C)NC(=O)[C@@H](NC(=O)C1(N)CCCC1)C(C)C)[C@@H](C)CC)C(=O)N[C@@H](Cc1c[nH]cn1)C(=O)N[C@@H](CCC(N)=O)C(=O)NC(C)(C)C(=O)NC(C)(C)C(=O)NC(C)(Cc1c(F)cccc1F)C(=O)NC(C)(Cc1c(F)cccc1F)C(N)=O (some centres unmarked) [Seq. ID. 580] (H-[Ac5c]V[Aib]EIQ[ξαMePhe(2-F)][Nle]HQ[Aib][Aib][ξαMePhe(2,6-F2)][ξαMePhe(2,6-F2)]-NH2): 8 h
- CCCC[C@H](NC(=O)C(C)(Cc1c(F)cccc1F)NC(=O)[C@H](CCC(N)=O)NC(=O)[C@@H](NC(=O)[C@H](CCC(=O)O)NC(=O)C(C)(C)NC(=O)[C@@H](NC(=O)C(C)(C)N)C(C)C)[C@@H](C)CC)C(=O)N[C@@H](Cc1c[nH]cn1)C(=O)N[C@@H](CCC(N)=O)C(=O)N[C@@H](CCCCNC(N)=O)C(=O)NC(C)(C)C(=O)NC(C)(C)C(=O)NC(C)(Cc1ccccc1F)C(N)=O (some centres unmarked) [Seq. ID. 430] (H-[Aib]V[Aib]EIQ[ξαMePhe(2,6-F2)][Nle]HQ[hCit][Aib][Aib][ξαMePhe(2-F)]-NH2): > 24 h
- CCCC[C@H](NC(=O)[C@H](CC(C)C)NC(=O)[C@H](CCC(N)=O)NC(=O)[C@@H](NC(=O)[C@H](CCC(=O)O)NC(=O)C(C)(C)NC(=O)[C@@H](NC(=O)C(C)(C)N)C(C)C)[C@@H](C)CC)C(=O)N[C@@H](Cc1c[nH]cn1)C(=O)N[C@@H](CCC(N)=O)C(=O)N[C@@H](CCCCNC(N)=O)C(=O)NC(C)(C)C(=O)NC(C)(C)C(=O)NC(Cc1ccc(-c2ccc(OC)cc2CC)cc1)C(=O)N[C@@H](CCCc1ccccc1)C(N)=O (some centres unmarked) [Seq. ID. 790] (H-[Aib]V[Aib]EIQL[Nle]HQ[hCit][Aib][Aib][ξBip(2'-Et-4'-OMe)][hhPhe]-NH2): > 24 h
- CCCC[C@H](NC(=O)C(C)(Cc1ccccc1F)NC(=O)[C@H](CCC(N)=O)NC(=O)[C@@H](NC(=O)[C@H](CCC(=O)O)NC(=O)C(C)(C)NC(=O)[C@@H](NC(=O)C(C)(C)N)C(C)C)[C@@H](C)CC)C(=O)N[C@@H](Cc1c[nH]cn1)C(=O)N[C@@H](CCC(N)=O)C(=O)N[C@@H](CCCCNC(=N)N)C(=O)N[C@@H](C)C(=O)NC(C)(C)C(=O)NC(C)(Cc1ccccc1F)C(N)=O (some centres unmarked) [Seq. ID. 161] (H-[Aib]V[Aib]EIQ[ξαMePhe(2-F)][Nle]HQ[hArg]A[Aib][ξαMePhe(2-F)]-NH2): 8 h
- CCCC[C@H](NC(=O)C(C)(Cc1ccccc1F)NC(=O)[C@H](CCC(N)=O)NC(=O)[C@@H](NC(=O)[C@H](CCC(=O)O)NC(=O)C(C)(C)NC(=O)[C@@H](NC(=O)C1(N)CCCC1)C(C)C)[C@@H](C)CC)C(=O)N[C@@H](Cc1c[nH]cn1)C(=O)N[C@@H](CCC(N)=O)C(=O)N[C@@H](CCCNC(N)=O)C(=O)NC(C)(C)C(=O)NC(C)(Cc1c(F)cccc1F)C(=O)NC(C)(Cc1ccccc1F)C(N)=O (some centres unmarked) [Seq. ID. 380] (H-[Ac5c]V[Aib]EIQ[ξαMePhe(2-F)][Nle]HQ[Cit][Aib][ξαMePhe(2,6-F2)][ξαMePhe(2-F)]-NH2): > 24 h

For each listed entry, give its half-life.
1. CCCC[C@H](NC(=O)C(C)(Cc1c(F)cccc1F)NC(=O)[C@H](CCC(N)=O)NC(=O)[C@@H](NC(=O)[C@H](CCC(=O)O)NC(=O)C1(NC(=O)[C@@H](NC(=O)C2(N)CCCC2)C(C)C)CCCC1)[C@@H](C)CC)C(=O)N[C@@H](Cc1c[nH]cn1)C(=O)N[C@@H](CCC(N)=O)C(=O)N[C@@H](CCCCNC(=N)N)C(=O)N1CCCC1(C)C(=O)N[C@@H](CCCCN)C(=O)NC(C)(Cc1ccccc1)C(N)=O (some centres unmarked) [Seq. ID. 46] (H-[Ac5c]V[Ac5c]EIQ[ξαMePhe(2,6-F2)][Nle]HQ[hArg][ξαMeP]K[ξαMeF]-NH2)
2. CCCC[C@H](NC(=O)[C@H](CC(C)C)NC(=O)[C@H](CCC(N)=O)NC(=O)[C@@H](NC(=O)[C@H](CCC(=O)O)NC(=O)C(C)(C)NC(=O)[C@@H](NC(=O)C(C)(C)N)C(C)C)[C@@H](C)CC)C(=O)N[C@@H](Cc1c[nH]cn1)C(=O)N[C@@H](CCC(N)=O)C(=O)N[C@@H](CCCN)C(=O)N[C@@H](C)C(=O)NC(C)(C)C(=O)NC(Cc1ccc(-c2ccc(OC)cc2CC)cc1)C(=O)N[C@@H](CCCc1ccccc1)C(N)=O (some centres unmarked) [Seq. ID. 750] (H-[Aib]V[Aib]EIQL[Nle]HQ[Orn]A[Aib][ξBip(2'-Et-4'-OMe)][hhPhe]-NH2)
3. CCCC[C@H](NC(=O)C(C)(Cc1c(F)cccc1F)NC(=O)[C@H](CCC(N)=O)NC(=O)[C@@H](NC(=O)[C@H](CCC(=O)O)NC(=O)C(C)(C)NC(=O)[C@@H](NC(=O)C1(N)CCCC1)C(C)C)[C@@H](C)CC)C(=O)N[C@@H](Cc1c[nH]cn1)C(=O)N[C@@H](CCC(N)=O)C(=O)NC(C)(Cc1c(F)cccc1F)C(=O)NC(C)(C)C(=O)N[C@@H](CCCNC(N)=O)C(=O)NC(C)(Cc1ccccc1F)C(N)=O (some centres unmarked) [Seq. ID. 480] (H-[Ac5c]V[Aib]EIQ[ξαMePhe(2,6-F2)][Nle]HQ[ξαMePhe(2,6-F2)][Aib][Cit][ξαMePhe(2-F)]-NH2)

Completion:
> 24 h
> 23 h
> 24 h
